tested on: P388; assay: Cytotoxicity against mouse P388 cells; format: functional; conditions: read-out: ED50 (the source's name)
Form field: EC50 (one value per entry).

Just so you know, measured EC50 for CC(=O)[C@H]1[C@H](O)CC[C@]23O[C@H]2CC[C@H](C)[C@@]13C [LAEVINOL H] came out at > 5 µg/mL

Just so you know, measured EC50 for CC(=O)[C@H]1[C@H](O)CC[C@]23O[C@H]2[C@H](O)C[C@H](C)[C@@]13C [LAEVINOL G] came out at > 5 µg/mL

Just so you know, measured EC50 for CC(=O)[C@H]1[C@@H](O)CCC2=C[C@H](O)C[C@H](C)[C@]21C [LAEVINOL D] came out at > 5 µg/mL
